Numbers sourced from the supplement of paper PMC10266784.

B1: library; numbered along this chain (parent)
chain: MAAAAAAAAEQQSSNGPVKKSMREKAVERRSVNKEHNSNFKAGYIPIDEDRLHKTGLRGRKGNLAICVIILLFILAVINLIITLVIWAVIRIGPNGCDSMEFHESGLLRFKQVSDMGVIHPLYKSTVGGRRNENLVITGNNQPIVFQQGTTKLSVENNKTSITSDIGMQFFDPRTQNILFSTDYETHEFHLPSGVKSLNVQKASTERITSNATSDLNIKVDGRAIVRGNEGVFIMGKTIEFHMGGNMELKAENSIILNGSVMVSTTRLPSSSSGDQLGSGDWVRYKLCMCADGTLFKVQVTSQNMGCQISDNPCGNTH

- Variants of: B1
- METHOD: SGCB cell-surface expression functional score (HA stain, bin4 vs bin1, normalised to synonymous) (log10 ratio); higher = more cell-surface SGCB (functional)
# label = 1 if SGCB cell-surface expression functional score (log10) >= 0.07 else 0

> print(dat)
    mutation.id  assigned.class
 1         V18S               1
 2        F296W               1
 3        L198G               0
 4        T186Y               1
 5        R130C               0
 6         N33Q               0
 7        K219Q               1
 8        V136W               1
 9        V283A               0
10        S164N               0
11        I239P               0
12        L268P               0
13        V263E               0
14         N63E               0
15        G293E               0
16         L71A               1
17        M289W               0
18        D281G               0
19        E240N               1
20        G228W               0
21         L75A               0
22          A8K               1
23         N79Y               0
24         R51N               1
25        A291S               0
26        N177D               1
27         K25F               0
28         V85Q               1
29        T126M               1
30        V232W               0
31        S270E               0
32         Q11T               0
33        R131H               0
34        E133F               0
35        Q276C               0
36        S154I               0
37         E24A               0
38        D183K               0
39        D183L               0
40        N217S               1
41        L249F               1
42        E240K               1
43         G56E               0
44        V300I               0
45         I92Q               0
46        S254R               1
47        R267I               0
48          A6P               1
49        L122M               0
50         T55S               1
51        G149Y               0
52        R130E               1
53        K196A               1
54        S210F               0
55         I69A               0
56          A8I               1
57        E206R               0
58        L287C               0
59        C290F               0
60        L198S               0
61        M168G               0
62        D172G               1
63        V226R               0
64        T150E               0
65         Y44T               1
66         C97N               0
67        G228K               0
68        K124F               0
69         I47V               1
70        L268A               1
